- TARGET OR SYSTEM: rabbit PXR (Oryctolagus cuniculus)
- Sequence (Q9TU02 1-411): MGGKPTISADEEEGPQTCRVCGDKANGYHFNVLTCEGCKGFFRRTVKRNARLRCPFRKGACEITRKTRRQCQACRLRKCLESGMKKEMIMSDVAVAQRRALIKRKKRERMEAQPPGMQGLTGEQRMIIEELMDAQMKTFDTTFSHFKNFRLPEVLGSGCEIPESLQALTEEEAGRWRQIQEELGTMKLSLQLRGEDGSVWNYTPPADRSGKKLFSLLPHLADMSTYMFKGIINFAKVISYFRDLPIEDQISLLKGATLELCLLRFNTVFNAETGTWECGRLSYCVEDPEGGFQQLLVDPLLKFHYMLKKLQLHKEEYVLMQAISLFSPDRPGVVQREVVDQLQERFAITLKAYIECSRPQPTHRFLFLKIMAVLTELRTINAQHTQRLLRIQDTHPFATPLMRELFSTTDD
- TEST NAME: PXR activation luciferase reporter assay, rabbit PXR
- STUDY CONDITIONS: -log(EC50), EC50 in molar units
PROPERTY LABEL: Rabbit PXR Activity

Clc1cc2c(cc1Cl)Oc1cc(Cl)c(Cl)cc1O2 :: No effect
c1ccc2c(c1)cc1ccc3cccc4ccc2c1c34 [MI3, Benzo [a]pyren] :: No effect
CC(C)CCC[C@@H](C)[C@H]1CC[C@H]2[C@@H]3[C@H](O)C=C4C[C@@H](O)CC[C@]4(C)[C@H]3CC[C@]12C [BI047, 7α-Hydroxycholesterol] :: No effect

###

- System: HepG2 cells
- STUDY CONDITIONS: human, 24 hr
// reported Toxicity for each item listed
Give the value in µM but do not write µM after it.

Q: Report Toxicity under test system HepG2 cells for CC(=O)[C@H]1CC[C@H]2[C@@H]3CCC4=CC(=O)CC[C@]4(C)[C@H]3CC[C@]12C .
Ans: 200

Q: Tell me its Toxicity on HepG2 cells: C[C@]12CCC(=O)C=C1CC[C@@H]1[C@@H]2C(=O)C[C@@]2(C)[C@H]1CC[C@]2(O)C(=O)CO
Ans: 200

Q: Answer briefly: Toxicity recorded on HepG2 cells for CO[C@H]1/C=C/O[C@@]2(C)Oc3c(C)c(O)c4c(O)c(c(/C=N/N5CCN(C)CC5)c(O)c4c3C2=O)NC(=O)/C(C)=C\C=C\[C@H](C)[C@H](O)[C@@H](C)[C@@H](O)[C@@H](C)[C@H](OC(C)=O)[C@@H]1C
Ans: 200

###

- TARGET OR SYSTEM: rat PXR (Rattus norvegicus, UniProt Q9R1A7)
- Sequence (Q9R1A7 whole entry): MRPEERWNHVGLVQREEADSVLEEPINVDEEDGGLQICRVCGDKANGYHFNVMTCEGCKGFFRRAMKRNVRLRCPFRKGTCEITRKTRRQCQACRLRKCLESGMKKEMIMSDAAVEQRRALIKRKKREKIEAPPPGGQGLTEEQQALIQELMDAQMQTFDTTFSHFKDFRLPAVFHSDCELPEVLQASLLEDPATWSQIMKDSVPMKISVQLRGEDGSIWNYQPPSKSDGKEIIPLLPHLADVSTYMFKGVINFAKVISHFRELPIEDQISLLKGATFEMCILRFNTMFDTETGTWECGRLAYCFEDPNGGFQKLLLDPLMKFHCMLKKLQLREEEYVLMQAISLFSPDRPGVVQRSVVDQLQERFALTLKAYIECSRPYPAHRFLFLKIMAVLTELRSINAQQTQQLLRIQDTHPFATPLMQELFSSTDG
- STUDY CONDITIONS: relative to 20 μM pregnenolone 16α-carbonitrile, assigned an efficacy of 1.0
Each entry gets Criterion not met if its Rat PXR efficacy, ε stays under 0.7, and Criterion met if its Rat PXR efficacy, ε is 0.7 or above.

Q: Could you tell me if the measured Rat PXR efficacy, ε of Clc1cc2c(cc1Cl)Oc1cc(Cl)c(Cl)cc1O2 [MI34, 2,3,7,8-tetrachlorodibenzo-p-dioxin] reaches 0.7 or more?
Ans: Criterion met

Q: Decide: is the reported value of Rat PXR efficacy, ε for C[C@H](CCC(=O)O)[C@H]1CC[C@H]2[C@@H]3CC[C@@H]4C[C@H](O)CC[C@]4(C)[C@H]3C[C@H](O)[C@]12C [BI008, Deoxycholic acid] equal to or greater than 0.7?
Ans: Criterion not met

Q: In plain terms: is recorded Rat PXR efficacy, ε at least 0.7 for CC(CCCC(CO)COS(=O)(=O)O)[C@H]1CCC2C3C(C[C@H](O)[C@@]21C)[C@@]1(C)CC[C@@H](O)C[C@@H]1C[C@H]3O (some centres unmarked) [BI036] ?
Ans: Criterion not met

Q: Would you say C[C@H](CCC(=O)O)[C@H]1CC[C@H]2[C@@H]3[C@H](O)[C@@H](O)[C@@H]4C[C@H](O)CC[C@]4(C)[C@H]3CC[C@]12C [BI018, α-Muricholic acid] shows Rat PXR efficacy, ε at minimum 0.7?
Ans: Criterion met
